# credit: the supplement of paper PMC10567573

B1: RSAD1 (parent)
chain: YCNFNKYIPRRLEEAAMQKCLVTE

Variants of: B1
protocol-details: protein stability index of a GFP-peptide fusion (GPS, HEK-293T) (PSI 1-6); higher = more stable;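 also: lentivirally expressed fusions sorted by FACS into six bins by GFP to DsRed ratio, PSI derived from sequencing read proportions per bin multiplied by bin number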
measurement-setup: c terminus: a fixed tail appended
readout-kind: protein stability index
Numbers only.

Before answering, review these 5 worked examples.
• E14C = 2.27
• M17D = 3.71
• E13I = 1.66
• L21M = 1.42
• C20L = 2.91

Your task in this section: give protein stability index for each listed record.
1. K19M
2. P9T
3. P9L
4. M17L
5. Y1F
6. Q18K
7. I8T

RESULT:
4.09
1.79
2.28
1.96
1.68
2.15
1.96

Your task in this section: give protein stability index for each listed record.
1. I8N
2. V22N
3. C20Q
4. P9V

RESULT:
[1.68, 2.35, 2, 2.71]

Your task in this section: give protein stability index for each listed record.
1. F4C
2. L21N

RESULT:
1: 1.94; 2: 2.19

Your task in this section: give protein stability index for each listed record.
1. K19T
2. Q18N
3. C20H

RESULT:
1: 2.01; 2: 3.44; 3: 2.31

Your task in this section: give protein stability index for each listed record.
1. Y7C
2. I8V
3. C2G
4. R11S
5. E13D
6. Y7G

RESULT:
1. 2.52
2. 1.09
3. 2.48
4. 1.44
5. 3.69
6. 2.18
